Cited source: PubChem BioAssay

Test description: yeast transport mutant growth inhibition pilot in 384-well plates, post-Golgi transport modulator project (AID 636)
Condition notes: absorbance 615 nm, about 18 h, hits give high values
Measure: inhibition (%)
Write the number in % without appending the unit.

Look over these answered cases.
{"Molecule": "COc1ccc(N2C(=O)CCC(C(=O)N3CCCCC3)C2c2ccc(OC)c(OC)c2)cc1 (stereo unspecified)", "inhibition (%)": -6.67}
{"Molecule": "Nc1nc2n(n1)C(c1cccc(Br)c1)CC(c1ccc(F)cc1)N2 (stereo unspecified)", "inhibition (%)": -1.03}
{"Molecule": "Cc1ccc2[nH]c(=O)c3cc(C(=O)NCCN4CCN(C)CC4)sc3c2c1", "inhibition (%)": -1.03}
{"Molecule": "COc1ccc(C2C(C(=O)N3CCC(C)CC3)c3ccccc3C(=O)N2C)cc1 (stereo unspecified)", "inhibition (%)": 1.23}

Answer with the recorded inhibition for the molecule listed here: CC1CCCCN1CCNC(=O)C1CCN(S(=O)(=O)c2cccc3cccnc23)CC1 (stereo unspecified) -2.53

Answer with the recorded inhibition for the molecule listed here: Cc1cccc(C2CC(c3ccc(Cl)cc3)Nc3nc(N)nn32)c1 (stereo unspecified) 0.4

Answer with the recorded inhibition for the molecule listed here: CCC(=O)Nc1cccc(Br)c1 -4.4

Answer with the recorded inhibition for the molecule listed here: COCCNC(=O)CN1C(=O)CSc2ncccc21 -4.67

Answer with the recorded inhibition for the molecule listed here: Cc1ccc(Cn2c(=O)c3ccccc3n3c(CCC(=O)O)nnc23)cc1 -5.07

Answer with the recorded inhibition for the molecule listed here: CCCCn1c(CN2CCN(c3ccc(F)cc3)CC2)nc2c1c(=O)n(C)c(=O)n2C -3.33

Answer with the recorded inhibition for the molecule listed here: Cc1cc(NC(=O)CS(=O)(=O)c2cn(Cc3cccc(F)c3)c3ccccc23)no1 -6.62

###

Test description: viability of PTEN-null HCT116 cells – cell-based, HCT116 clonal line, CellTiter-Glo, pilot screen (AID 824);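 also: 0% = 20 µM Hyamine control and 100% = vehicle cell control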
Condition notes: HCT116 PTEN-deleted viability, 60 h, at 10 µM, hits give low values
Records with an inconclusive call do not appear. Active and inactive are the calls of the source.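 How the source made its calls: active means viability at or below 27.92% in each of two runs, the all-compound median minus 4 SD; inconclusive means no clear call, values can overlap the other calls; inactive means the rest.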
Measure: viability

{"Compound": "O=C(Nc1cnccn1)c1cccs1", "viability": "94.2% (inactive)"}

Answer with the recorded viability for the compound listed here: CC1(C)Cc2c(sc3c2c(=N)n(Cc2ccco2)c(=O)n3Cc2ccc(Cl)cc2)CO1 70.6% (inactive)

Answer with the recorded viability for the compound listed here: COc1ccc(C2(C(=O)NCCCN(C)C)CCOCC2)cc1 100% (inactive)

Answer with the recorded viability for the compound listed here: COc1ccc(NS(=O)(=O)c2coc(C(N)=O)c2)cc1Cl 102% (inactive)

###

Test description: RAM signaling pathway blockade in yeast – S. cerevisiae, Pdr1DBD-CYC8 efflux-inhibited sensitized strain, primary screen (AID 1298);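 also: 0% = DMSO untreated cells without growth and 100% = 10 µM 1-NA-PP1 full growth; higher means more yeast growth rescued from 5-FOA killing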
Condition notes: S. cerevisiae cbk1-as DSE1-URA3 strain, 5-FOA growth OD615, 2 d; at 50 µM; hits give high values
Below, each of the compounds is paired with its reported RAM network inhibition value.
Write the number in % without appending the unit.

{"Compound": "CCN1C(=O)c2ccccc2S(=O)c2ccc(C(=O)NCc3ccccn3)cc21 (stereo unspecified)", "RAM network inhibition / %": -2.39}
{"Compound": "COc1cccc(N2CCN(c3c4c(nc5ncnn35)CCC4)CC2)c1", "RAM network inhibition / %": 4.78}
{"Compound": "CCOC(=O)c1cccc(NC2c3ccccc3C(=O)N2Cc2ccco2)c1 (stereo unspecified)", "RAM network inhibition / %": 8.31}
{"Compound": "COc1ccc(C)cc1NC(=O)CNC(=O)Cn1ccc2ccccc2c1=O", "RAM network inhibition / %": 5.68}
{"Compound": "CC1NC2(C(=O)N(Cc3ccccc3)c3ccccc32)C2C(=O)N(c3ccccc3)C(=O)C12 (stereo unspecified)", "RAM network inhibition / %": 3.53}

Answer with the recorded RAM network inhibition for the compound listed here: O=C(CCC(=O)OCC(=O)c1ccccc1)NC1CCCCC1 5.37

###

Test description: growth suppression of yeast trafficking mutant, preliminary HTS, modulators of trafficking downstream of Golgi apparatus project, 1536-format plate, OD 615 nm (AID 637)
Condition notes: yeast transport mutant growth, absorbance 615 nm, 18 h; hits give high values
Below, each of the compounds is paired with its reported inhibition value.
Write the number in % without appending the unit.

Look over these answered cases.
{"Compound": "COc1ccccc1Oc1ccc(S(=O)(=O)N2CCOCC2)cc1S(=O)(=O)N1CCOCC1", "Result value": -6.67}
{"Compound": "CCOC(=O)CCc1c(C)nc2cc(-c3ccc(F)cc3)[nH]n2c1=O", "Result value": -7.33}
{"Compound": "CCOC(=O)C(CC)Sc1ncnc2nc[nH]c12 (stereo not drawn)", "Result value": -7.27}
{"Compound": "CCOC(=O)CN1CC23C=CC(O2)C(C(=O)Nc2ccc(C(C)=O)cc2)C3C1=O (stereo not drawn)", "Result value": 2.67}

# context switch: different compound, same inhibition
Answer with the recorded inhibition for the compound listed here: CCOC(=O)N1CCC(NC(=O)Cn2c3c(c(-c4ccccc4Cl)cc2=O)CCC3)CC1 -1.67

###

Test description: HUVEC growth inhibition – cell-based, human, primary screen (AID 575);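 also: 100% = median of untreated cell wells with 0.1% DMSO on each plate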
Condition notes: HUVEC proliferation, CellTiter-Glo luminescence, 72 h; at 10 µM; hits give low values
Measure: viability (%)
Write the number in % without appending the unit.

Look over these answered cases.
{"Compound": "CC(O)CN1C(=O)C(CC(=O)Nc2ccc(Cl)cc2)SC1=Nc1ccccc1 (stereo unspecified)", "viability (%)": 57}
{"Compound": "CC(NC(=O)C1CC1)C(c1cccs1)N1CCN(c2ccccc2)CC1 (stereo unspecified)", "viability (%)": 105}

# context switch: different compound, same viability
Answer with the recorded viability for the compound listed here: FC(F)(F)COc1nc(N2CCCCC2)nc(N2CCNCC2)n1 98.8

###

Test description: viability of PTEN-null HCT116 cells – cell-based, HCT116 clonal line, CellTiter-Glo, pilot screen (AID 824);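 also: 0% = 20 µM Hyamine control and 100% = vehicle cell control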
Condition notes: HCT116 PTEN-deleted viability, 60 h, at 10 µM, hits give low values
Records with an inconclusive call do not appear.
Mark rule met only for viability values smaller than 90%; exact matches and larger values are rule not met.

Worked set:
{"Compound": "CC1(C(=O)NCc2cccnc2)CCC(=O)N1CCc1ccccc1 (stereo unspecified)", "Label value": "rule not met"}
{"Compound": "O=C(c1ccc2c(c1)OCCO2)N1CCCCC1", "Label value": "rule not met"}
{"Compound": "COc1cc(NC(=O)CC(C)C)ccc1NC(=O)c1ccco1", "Label value": "rule not met"}
{"Compound": "COC(=O)C(C)Sc1nnc2n(-c3cccc(C)c3)c(=O)c3c4c(sc3n12)CCCC4 (stereo unspecified)", "Label value": "rule met"}

Here is the next item to consider.
Quick check: does Cc1ccc(CSc2nc3c(c(=O)[nH]2)CCC3)cc1 have viability under 90%? rule not met

###

Test description: HUVEC growth inhibition – cell-based, human, primary screen (AID 575);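 also: 100% = median of untreated cell wells with 0.1% DMSO on each plate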
Condition notes: HUVEC proliferation, CellTiter-Glo luminescence, 72 h; at 10 µM; hits give low values
Measure: viability (%)
Write the number in % without appending the unit.

{"Compound": "CCOC(=O)Nc1c(O)ccc2oc(C)c(-c3ccccc3)c12", "viability [%]": 68.7}
{"Compound": "Cc1ccc(-c2cc(C(F)F)nc(NCc3cccnc3)n2)cc1", "viability [%]": 63.9}
{"Compound": "CC1CN(c2ccc(Oc3ccccc3)cc2)c2nc3c(c(=O)n(CC(N)=O)c(=O)n3C)n2C1 (stereo unspecified)", "viability [%]": 77.5}
{"Compound": "COc1ccc(C(=O)NCC(=O)NC2=NCCS2)cc1", "viability [%]": 120}
{"Compound": "CCC(C)NC(=O)c1cn(CC)c2ccc(S(=O)(=O)N(C)C)cc2c1=O (stereo unspecified)", "viability [%]": 85.7}

Answer with the recorded viability for the compound listed here: Cc1onc(-c2c(Cl)cccc2Cl)c1C(=O)NCC1CCCO1 (stereo unspecified) 97.7

###

Test description: MRP1 drug-resistance reversers in H69AR cells – cell-based, doxorubicin co-treatment, pilot screen (AID 601)
Condition notes: H69AR cells + 2 uM doxorubicin, CellTiter-Glo, 72 h; at 10 µM; hits give high values
Below, each of the molecules is paired with its reported differential viability (reversal) value.
Write the number in % without appending the unit.

{"Molecule": "COc1ccc(CCNC(=O)c2cc3sc(Cl)cc3n2C)cc1OC", "differential viability (reversal), %": -3.9}
{"Molecule": "Nc1[nH]nc2nc(N3CCCC3)nc(-c3ccccc3)c12", "differential viability (reversal), %": 7}
{"Molecule": "COc1ccc(S(=O)(=O)Cc2ccc(C(=O)N3CCN(c4ccccc4)CC3)o2)cc1", "differential viability (reversal), %": -1.7}

Answer with the recorded differential viability (reversal) for the molecule listed here: Cn1c(=O)oc2cc(S(=O)(=O)NC3CCN(Cc4ccccc4)CC3)ccc21 14.4

Answer with the recorded differential viability (reversal) for the molecule listed here: COCCn1c(=O)[nH]c2cc(C(=O)N3CCN(c4ccccc4OC)CC3)ccc2c1=O -5.65

Answer with the recorded differential viability (reversal) for the molecule listed here: CCOc1cccc(-c2nnc3n2N=C(c2cc(OC)ccc2OC)CS3)c1 -60.8

Answer with the recorded differential viability (reversal) for the molecule listed here: CCOC(=O)c1[nH]c(C)c(C(=O)Nc2ccc(Cl)cc2)c1C -7.14

Answer with the recorded differential viability (reversal) for the molecule listed here: COc1cc(C2NC(=O)NC(C)=C2C(=O)OCC2CCCO2)ccc1O (stereo not drawn) 5.47

Answer with the recorded differential viability (reversal) for the molecule listed here: CC(=O)C1=C(C)Nc2ncnn2C1c1cccc(OCc2ccccc2)c1 (stereo not drawn) -5.64

Answer with the recorded differential viability (reversal) for the molecule listed here: CN(CC(=O)N1CCCCC1)S(=O)(=O)c1cccc2cccnc12 1.62

Answer with the recorded differential viability (reversal) for the molecule listed here: Cn1cc(Cl)c(C(=O)N(Cc2ccccc2)c2ccccn2)n1 -1.01

Answer with the recorded differential viability (reversal) for the molecule listed here: Cc1cc(C)nc(NC2=NCC(=O)N2c2ccccc2Br)n1 -10.2

Answer with the recorded differential viability (reversal) for the molecule listed here: Cc1ccc2c(c1)-c1c(cnn1CC(=O)NC(C)CCc1ccco1)CO2 (stereo not drawn) -5.22

Answer with the recorded differential viability (reversal) for the molecule listed here: CCCCN(C(=O)c1ccc(Cl)cc1)C1CC2CCC(C1)N2C (stereo not drawn) 3.96

Answer with the recorded differential viability (reversal) for the molecule listed here: CCCc1cc(C(=O)Nc2ccc(C(C)=O)cc2)no1 5.59

Answer with the recorded differential viability (reversal) for the molecule listed here: COCCCNC(=O)CC1Oc2ccccc2NC1=O (stereo not drawn) -5.41
